Reference source: ChEMBL document CHEMBL4513216

Here the recorded cytotoxicity at 10 µM is given for each entry.
# EXPERIMENT: Toxicity liver stage against HepG2, at 10uM
# Format: cell-based
# Parameters: test concentration 10 uM, cell line HepG2-A16-CD81EGFP
# TEST SETTINGS: human, HepG2-A16-CD81EGFP cells; read-out: INHIBITION
OUTCOME MEASURE: cytotoxicity at 10 µM (%)

- MOLECULE: "O=C(C[C@@H]1COC[C@H]2CN(Cc3cccnc3)C[C@@H]12)N1CCCC1"
  OUTCOME MEASURE: "cytotoxicity at 10 µM"
  DISPLAY UNIT: "%"
  RECORDED RESULT: -128
- MOLECULE: "Cc1noc([C@@]23CCO[C@@H]2CCN(C(=O)C2CCOCC2)C3)n1"
  OUTCOME MEASURE: "cytotoxicity at 10 µM"
  DISPLAY UNIT: "%"
  RECORDED RESULT: 1.68
- MOLECULE: "O=c1[nH][nH]cc1-c1ccnc(NCCc2ccc(F)cc2)n1"
  OUTCOME MEASURE: "cytotoxicity at 10 µM"
  DISPLAY UNIT: "%"
  RECORDED RESULT: 3.44
- MOLECULE: "CC(C)C1CN(Cc2c[nH]cn2)CCCN1CC1CC1 (configuration not stated)"
  OUTCOME MEASURE: "cytotoxicity at 10 µM"
  DISPLAY UNIT: "%"
  RECORDED RESULT: 0.127
- MOLECULE: "Fc1cccc(-c2cccc(N3CCC(NC4CCCOC4)CC3)c2)c1 (configuration not stated)"
  OUTCOME MEASURE: "cytotoxicity at 10 µM"
  DISPLAY UNIT: "%"
  RECORDED RESULT: 12
- MOLECULE: "CC(=O)NC1CCCN(C(=O)CNc2cc(Cl)cc(Cl)c2)C1 (configuration not stated)"
  OUTCOME MEASURE: "cytotoxicity at 10 µM"
  DISPLAY UNIT: "%"
  RECORDED RESULT: -1.68
- MOLECULE: "O=C(Nc1ccc(-n2cccn2)cc1)N1CCOCC(O)C1 (configuration not stated)"
  OUTCOME MEASURE: "cytotoxicity at 10 µM"
  DISPLAY UNIT: "%"
  RECORDED RESULT: -46.8
- MOLECULE: "CCc1nc(CNc2ccc(-c3nc(C4CC4)no3)cn2)no1"
  OUTCOME MEASURE: "cytotoxicity at 10 µM"
  DISPLAY UNIT: "%"
  RECORDED RESULT: -6.14
- MOLECULE: "Cc1cc(C(=O)N2CCOC[C@H](Oc3cccnc3)C2)c(C(F)(F)F)o1"
  OUTCOME MEASURE: "cytotoxicity at 10 µM"
  DISPLAY UNIT: "%"
  RECORDED RESULT: 3.11
- MOLECULE: "CC(C)(C)CN1CCN2C(=O)N(C3CCCCC3)C[C@H]2C1"
  OUTCOME MEASURE: "cytotoxicity at 10 µM"
  DISPLAY UNIT: "%"
  RECORDED RESULT: 4.91
- MOLECULE: "CN(C)c1cncc(C2CCN(C(=O)CO)CC2)n1"
  OUTCOME MEASURE: "cytotoxicity at 10 µM"
  DISPLAY UNIT: "%"
  RECORDED RESULT: -1.37
- MOLECULE: "CC(Cn1ccnc1)NC(=O)NCCc1cccnc1 (configuration not stated)"
  OUTCOME MEASURE: "cytotoxicity at 10 µM"
  DISPLAY UNIT: "%"
  RECORDED RESULT: -12.1
- MOLECULE: "CN1CC(C(=O)NC(C)(C)C)CC1=O (configuration not stated)"
  OUTCOME MEASURE: "cytotoxicity at 10 µM"
  DISPLAY UNIT: "%"
  RECORDED RESULT: -3.36
- MOLECULE: "O=S(=O)(NC[C@H]1C[C@@H]2CCN1C[C@@H]2CN1CCCC1)c1ccc(Cl)cc1"
  OUTCOME MEASURE: "cytotoxicity at 10 µM"
  DISPLAY UNIT: "%"
  RECORDED RESULT: -4.38
- MOLECULE: "COc1cccc(CN(C)Cc2nc(C(C)C)no2)c1"
  OUTCOME MEASURE: "cytotoxicity at 10 µM"
  DISPLAY UNIT: "%"
  RECORDED RESULT: -43.6
- MOLECULE: "O=S(=O)(NCCn1ccc(-c2ccncc2)n1)C1CC1"
  OUTCOME MEASURE: "cytotoxicity at 10 µM"
  DISPLAY UNIT: "%"
  RECORDED RESULT: 0.794
- MOLECULE: "O=C(NCN1CCc2ccccc2C1)c1cnccn1"
  OUTCOME MEASURE: "cytotoxicity at 10 µM"
  DISPLAY UNIT: "%"
  RECORDED RESULT: 20.2
- MOLECULE: "Cc1cc(O)nc(C2CN(CCC(F)(F)F)CCO2)n1 (configuration not stated)"
  OUTCOME MEASURE: "cytotoxicity at 10 µM"
  DISPLAY UNIT: "%"
  RECORDED RESULT: -27.4
- MOLECULE: "Cc1nc(C)n(C2CCCN(C(=O)CCCNc3ncccn3)C2)n1 (configuration not stated)"
  OUTCOME MEASURE: "cytotoxicity at 10 µM"
  DISPLAY UNIT: "%"
  RECORDED RESULT: -4.26
- MOLECULE: "c1coc(CN2CCc3onc(Cn4ccnc4)c3C2)c1"
  OUTCOME MEASURE: "cytotoxicity at 10 µM"
  DISPLAY UNIT: "%"
  RECORDED RESULT: 7.52
- MOLECULE: "CCN1CC2(CCN(C(=O)C(C)Oc3ccc(F)cc3F)CC2)OC1=O (configuration not stated)"
  OUTCOME MEASURE: "cytotoxicity at 10 µM"
  DISPLAY UNIT: "%"
  RECORDED RESULT: -1.98
- MOLECULE: "c1ccc(Cc2nnc(CN3CCCC3Cn3cccn3)o2)cc1 (configuration not stated)"
  OUTCOME MEASURE: "cytotoxicity at 10 µM"
  DISPLAY UNIT: "%"
  RECORDED RESULT: -11.7
- MOLECULE: "CN1CCCN(C(=O)c2cnsn2)c2cc(Cl)ccc21"
  OUTCOME MEASURE: "cytotoxicity at 10 µM"
  DISPLAY UNIT: "%"
  RECORDED RESULT: -7.34
- MOLECULE: "O=C(NCc1ccc(N2CCCC2)nc1)N1CCc2sccc2C1"
  OUTCOME MEASURE: "cytotoxicity at 10 µM"
  DISPLAY UNIT: "%"
  RECORDED RESULT: -6.87
- MOLECULE: "CC1CCC(O)(CN2CCN(CCNC(=O)C3CCC3)CC2)CC1 (configuration not stated)"
  OUTCOME MEASURE: "cytotoxicity at 10 µM"
  DISPLAY UNIT: "%"
  RECORDED RESULT: -0.118
- MOLECULE: "Cc1ccccc1CC(=O)N1C[C@@H]2CC[C@H]1CN(Cc1cccnc1)C2"
  OUTCOME MEASURE: "cytotoxicity at 10 µM"
  DISPLAY UNIT: "%"
  RECORDED RESULT: -2.36
- MOLECULE: "CN(CCC(O)c1ccccc1)Cc1nc(-c2ccccc2)no1 (configuration not stated)"
  OUTCOME MEASURE: "cytotoxicity at 10 µM"
  DISPLAY UNIT: "%"
  RECORDED RESULT: 7.86
- MOLECULE: "CCc1cccc(N2CCC(NC(=O)c3cc[nH]n3)CC2)c1"
  OUTCOME MEASURE: "cytotoxicity at 10 µM"
  DISPLAY UNIT: "%"
  RECORDED RESULT: 3.08
- MOLECULE: "CC(=O)Nc1nc(C(=O)NCc2ccnc(N3CCCC3)c2)cs1"
  OUTCOME MEASURE: "cytotoxicity at 10 µM"
  DISPLAY UNIT: "%"
  RECORDED RESULT: -1.94
- MOLECULE: "CCN(Cc1ncc(C(C)(C)C)o1)Cc1ccccc1C"
  OUTCOME MEASURE: "cytotoxicity at 10 µM"
  DISPLAY UNIT: "%"
  RECORDED RESULT: -9.11
- MOLECULE: "CCC(=O)N(CC(N)=O)Cc1cccc(Oc2ccccc2)c1"
  OUTCOME MEASURE: "cytotoxicity at 10 µM"
  DISPLAY UNIT: "%"
  RECORDED RESULT: 9.66
- MOLECULE: "N[C@@H]1c2ccccc2C2(CCN(c3ccc(C(F)(F)F)cn3)CC2)[C@H]1O"
  OUTCOME MEASURE: "cytotoxicity at 10 µM"
  DISPLAY UNIT: "%"
  RECORDED RESULT: -5.78
- MOLECULE: "CC(C)(CO)CCCNC(=O)NC1(c2cccc(F)c2)CC1"
  OUTCOME MEASURE: "cytotoxicity at 10 µM"
  DISPLAY UNIT: "%"
  RECORDED RESULT: -4.86
- MOLECULE: "CCCc1csc(-c2ccc(S(C)(=O)=O)cc2)n1"
  OUTCOME MEASURE: "cytotoxicity at 10 µM"
  DISPLAY UNIT: "%"
  RECORDED RESULT: -2.69
- MOLECULE: "Cc1ccc(NC(=O)C2CSCN2C(=O)c2cnsn2)c(C)c1 (configuration not stated)"
  OUTCOME MEASURE: "cytotoxicity at 10 µM"
  DISPLAY UNIT: "%"
  RECORDED RESULT: -0.955
- MOLECULE: "CCc1ncc2c(n1)CN(C(=O)COC)C2"
  OUTCOME MEASURE: "cytotoxicity at 10 µM"
  DISPLAY UNIT: "%"
  RECORDED RESULT: -19.4
- MOLECULE: "COc1ccc([C@@H]2CN(c3cc(OC)nc(N)n3)C[C@H]2N(C)C)cc1"
  OUTCOME MEASURE: "cytotoxicity at 10 µM"
  DISPLAY UNIT: "%"
  RECORDED RESULT: 15
